- Tested on: DLD-1 colon
- experimental-details: NCI tumour cell line growth inhibition, 48 h
Listing of recorded TGI by entry.

| molecule | target-under-test | TGI |
| --- | --- | --- |
| O=Cc1ccc2c(c1-c1c(C=O)ccc3c1OCO3)OCO2 | DLD-1 colon | > 100 µM |
| CC1COC(C)(C)P(=O)(c2ccccc2)C1 (stereo not given) | DLD-1 colon | > 100 µM |
| O=C1NP23(OCCO2)Oc2ccccc2C3(C(F)(F)F)O1 (stereo not given) | DLD-1 colon | > 100 µM |
| Cc1ccc(S(=O)(=O)c2ccc(N)cc2)cc1 | DLD-1 colon | > 100 µM |
| CC(C)N(C(=O)C12C3C4C1(I)C1C2C3(I)C41C(=O)N(C(C)C)C(C)C)C(C)C (stereo not given) | DLD-1 colon | > 100 µM |

---

Listing of recorded TGI by entry.
- Test system: DU-145 prostate
- experimental-details: NCI tumour cell line growth inhibition, 48 h

| compound | TGI |
| --- | --- |
| O=C(/N=C/c1c(O)c2ccccc2oc1=O)Oc1ccccc1 | > 100 µM |
| CCOC(=O)c1c(NC(=O)OC)c(C#N)c2n1CCCCC2 | 43.9 µM |
| CC(C)CC(NC(=O)C(CI)Cc1ccccc1)C(=O)Nc1ccccc1 (stereo not drawn) | > 100 µM |
| CCCCCOc1ccc(/C=N/Nc2cc(C)nc3ccc(Br)cc23)cc1 | 3.25 µM |
| COc1cc(C(C)=O)cc(C(=O)N(C(C)C)C(C)C)c1[Si](C)(C)C | > 100 µM |
| Cc1ccc(-c2n[nH]c(=O)n2/N=C\c2ccc([N+](=O)[O-])cc2)cc1 | > 100 µM |
| CC1=C(C(=O)Nc2ccc(Cl)c(Cl)c2)C(c2cccc(Oc3ccccc3)c2)NC(=O)N1 (stereo not drawn) | 33.3 µM |
| O=C(Oc1ccccc1)N1c2ccccc2[C@@]23O[C@]24CCC[C@H]3C#C/C=C\C#C[C@H]14 | 30.5 µM |
| CN(CCO)c1ccc(N2Cc3ccccc3OC3=C2C(=O)c2c(O)ccc(O)c2C3=O)cn1 | 0.323 µM |
| CCOC(=O)/C=C/[C@H](O[Si](CC)(CC)CC)C(C)(C)C | > 100 µM |
| C=CC1C(OC2OC(CO)C(O)C(O)C2O)OC=C(C(=O)OC)C1CC1CC(=O)CC(CCc2ccc(O)cc2)O1 (stereo not drawn) | > 100 µM |
| O=C(Nc1ccc(F)cc1)c1cc(S(=O)(=O)Nc2nc3ccccc3o2)c(SCc2ccccc2)cc1Cl | 35.4 µM |
| CCOC(=O)CO/N=C1/C(c2c(O)[nH]c3ccccc23)=Nc2ccccc21 | > 100 µM |
| C#COc1cccc(Nc2c(C#N)cnc3ncc(NC(=O)CCl)cc23)c1 | > 62.5 µM |
| N#Cc1[nH]c(=S)[nH]c1N | > 100 µM |
| O=CN1CCN(CC(O)CN2CCCCC2)CC1 (stereo not drawn) | > 100 µM |
| O=S1(=O)Cc2ccc3c4c2-c2c(ccc5ccc(c-4c25)CS(=O)(=O)C3)C1 | > 100 µM |
| CCn1sc2ccccc2c1=O | 49.6 µM |

---

- Tested on: HOP-92 NSCLC
- experimental-details: NCI tumour cell line growth inhibition, 48 h

| compound | GI50 |
| --- | --- |
| NC(=O)c1cc(S(=O)(=O)Nc2nnc(-c3ccccc3)c(-c3ccccc3)n2)c(SCc2ccccc2)cc1Cl | > 100 µM |
| O=C(CSC1CCc2ccccc21)N/N=C/c1ccccc1O (stereo not drawn) | 2.61 µM |
| COc1ccc(CCNC(=O)c2ccc(NC3=C(Cl)C(=O)N(Cc4ccccc4)C3=O)cc2)cc1OC | 2.22 µM |

---

- Test system: HCT-116 colon
- experimental-details: NCI tumour cell line growth inhibition, 48 h
Listing of recorded TGI by entry.

| compound | target-under-test | TGI |
| --- | --- | --- |
| c1ccc([P+](CC[P+](c2ccccc2)(c2ccccc2)c2ccccc2)(c2ccccc2)c2ccccc2)cc1 | HCT-116 colon | > 100 µM |
| Cc1ccc(S(=O)(=O)c2ccc(N)cc2)cc1 | HCT-116 colon | > 100 µM |
| O=S1(=O)Cc2ccc3c4c2-c2c(ccc5ccc(c-4c25)CS(=O)(=O)C3)C1 | HCT-116 colon | > 100 µM |
| Cc1cc(C2CC(O)C(CO)O2)c(F)cc1F (configuration not stated) | HCT-116 colon | > 100 µM |
| O=C(Oc1cccnc1)c1cc2cc(CCl)ccc2oc1=O | HCT-116 colon | 38.7 µM |
| CCN1C(=O)N(CC)C2C1NN=c1s/c(=C3\C(=O)N(CC(C)(C)C)c4ccccc43)c(=O)n12 (configuration not stated) | HCT-116 colon | 14.5 µM |
| O=C(O)C1C2C=CC(C2)C1c1ccccc1 (configuration not stated) | HCT-116 colon | > 100 µM |
| N#CC(C(=O)C(=O)Nc1ccc(Cl)cc1)c1ccccc1 (configuration not stated) | HCT-116 colon | > 100 µM |
| O[C@H](c1cc(C(F)(F)F)nc2c(C(F)(F)F)cccc12)[C@@H]1CCCCN1 | HCT-116 colon | 5.44 µM |
| C=C1C(=O)O[C@H]2[C@H]1CC/C(COC(=O)/C=C\C(=O)NCc1ccc(Cn3c(=O)sn(CCCC)c3=O)cc1)=C\CC[C@@]1(C)O[C@@H]21 | HCT-116 colon | 0.491 µM |
| CCCN1CN(C(C(=O)N[C@@H]2C(=O)N3C2SC(C)(C)C3C(=O)O)c2ccc(O)cc2)CSC1=S (some centres not stated) | HCT-116 colon | > 100 µM |
| Cn1c(=O)oc2cc(C(O)CN3CCN(Cc4ccccn4)CC3)c(Cl)cc21 (configuration not stated) | HCT-116 colon | > 100 µM |
| O=C1NP23(OCCO2)Oc2ccccc2C3(C(F)(F)F)O1 (configuration not stated) | HCT-116 colon | > 100 µM |
| Cc1cc(C)c(/C=C2\C(=O)Nc3ccc(NC(=O)CCCCCCC(=O)NO)cc32)[nH]1 | HCT-116 colon | 4.86 µM |
| COc1cc(OC)c(/C=C/c2c3ccccc3cc[n+]2C)c(OC)c1 | HCT-116 colon | 13.5 µM |
| [N-]=[N+]=NC1C(O)C(CO)OC1n1ccc(=O)[nH]c1=O (configuration not stated) | HCT-116 colon | > 875 µM |
| COC(=O)/C=C/c1c(CC=C(C)C)ncn1C | HCT-116 colon | > 100 µM |
| N=C(N)c1ccc2nc(-c3cc(CC(=O)N[C@@H](CC(=O)O)C(=O)O)cc(-c4cc(S(N)(=O)=O)ccc4O)c3O)[nH]c2c1 | HCT-116 colon | > 100 µM |
| CCCCCCCCCCCCC/C=C/[C@@H](O)[C@H](COC1OC(CO)C(OC2OC(CO)C(O)C(OC3(C(=O)O)CC(O)C(NC(C)=O)C(C(O)C(O)CO)O3)C2O)C(O)C1O)N=[N+]=[N-] (some centres not stated) | HCT-116 colon | > 100 µM |
| CCn1c(=O)c2c(=O)c3c4c(oc3oc2c2ccccc21)C(=O)c1ccccc1C4=O | HCT-116 colon | > 100 µM |
| COc1ccc(O)c(C(=O)c2ccc(C(=O)N[C@H]3CCCNC[C@@H]3NC(=O)c3ccncc3)cc2)c1F | HCT-116 colon | > 25 µM |
| CCC(C)C1NC(=O)C(NC(=O)c2c3[nH]c4c(C(=O)NC5C(=O)NC(C(C)CC)C(=O)N6CCCC6C(=O)N(C)CC(=O)N(C)C(C(C)C)C(=O)OC5C)ccc(C)c4oc-3c(C)c(=O)c2=O)C(C)OC(=O)C(C(C)C)N(C)C(=O)CN(C)C(=O)C2CCCN2C1=O (configuration not stated) | HCT-116 colon | 40.4 µM |
| O=C1NC(=O)C(c2cccc([N+](=O)[O-])c2)=C1Nc1cc(Cl)c(O)c(Cl)c1 | HCT-116 colon | > 25 µM |
| S=c1[nH]c(=S)c2nnn(-c3ccccc3)c2[nH]1 | HCT-116 colon | 4.49 µM |
| CCCCSC1=N/C(=C\c2ccco2)C(Cl)=N1 | HCT-116 colon | > 100 µM |
| COC1(OC)CC2C(=O)N(Cc3ccccc3)C1C=C2S(=O)(=O)c1ccccc1 (configuration not stated) | HCT-116 colon | 26.7 µM |
| CCOC(=O)/C=C/[C@H](O[Si](CC)(CC)CC)C(C)(C)C | HCT-116 colon | > 100 µM |
| COC(=O)CC1C=CC(C)(OC)OO1 (configuration not stated) | HCT-116 colon | > 100 µM |
| O=c1cc(CO)oc(C(O)c2ccccc2)c1O (configuration not stated) | HCT-116 colon | > 100 µM |
| O=C1OCC2C1C1c3ccccc3C(O)c3ccccc3C21 (configuration not stated) | HCT-116 colon | > 100 µM |
| COc1ccc(-c2csc(Cc3nc4ccccc4c(=O)n3-c3ccc(Cl)cc3)n2)cc1 | HCT-116 colon | 57.9 µM |
| Cc1[nH]c(/C=C2\C(=O)Nc3ccccc32)c(C)c1CCC(=O)O | HCT-116 colon | > 100 µM |
| CCOC(=O)c1c(NC(=O)c2cccc(C(F)(F)F)c2)sc2c(CN(C)C)c(O)ccc12 | HCT-116 colon | 10.3 µM |
| Cc1cccc(C)c1NC(=O)C(=O)C(C(=O)c1ccccc1-c1ccccc1)C1OC(=O)c2ccccc21 (configuration not stated) | HCT-116 colon | 27.8 µM |
| Cc1c(/C=N/NC(=O)c2ccc(Cl)cc2)c(=O)n(-c2ccccc2)n1C | HCT-116 colon | > 100 µM |
| Cc1c(O)c(OC2OC(CO)C(O)C(O)C2O)cc2c1CC[C@@H]1C2(C)C(=O)C[C@]2(C)[C@@H]([C@@](C)(O)C(=O)CCC(C)(C)O)[C@H](O)C[C@@]12C (some centres not stated) | HCT-116 colon | > 100 µM |
| COC1=CC2C(c3cc4ccccc4n3S(=O)(=O)c3ccccc3)CC1CN2C(=O)OCc1ccccc1 (configuration not stated) | HCT-116 colon | > 100 µM |

FYI, the data here is from PubChem BioAssay (NCI).
